# Test system: Saccharomyces cerevisiae
# protocol text: protein stability index of tFT-peptide fusion (C-terminal peptide) (PSI (0-1 scale)); higher = more stable (slower turnover)
# test parameters: genetic background: cdc53-1; temperature: 37 C
property label: protein stability index
Give the figure only, with no unit attached.

chain sequence: DVPLFLPLPVSV
protein stability index: 0.357
--
chain sequence: HHACLLPVRKAG
protein stability index: 0.752
--
chain sequence: LICRFLFFVCVG
protein stability index: 0.451
--
chain sequence: AFLLVLFCCVSC
protein stability index: 0.258
--
chain sequence: VGGGGRFWVCVG
protein stability index: 0.739

Asked: Give protein stability index for ASWRYMFPVTLG tested on Saccharomyces cerevisiae.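 Note: PSI is a weighted mean of sequencing reads over stability bins, variants kept only with over 10 reads, mCherry proximal and sfGFP distal, peptide attached via GGGS linker.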
Given back: 0.574

Asked: Enter recorded protein stability index with Saccharomyces cerevisiae for VCSCLVLVFCCC here.
Given back: 0.222

Asked: Find protein stability index for YCILGSYRLCVG on Saccharomyces cerevisiae and write it down.
Given back: 0.434

Asked: Give the observed protein stability index of LCLICLFLLKVL for Saccharomyces cerevisiae.
Given back: 0.548

Asked: Give protein stability index for this entry on Saccharomyces cerevisiae: FALFCFVIFMSR
Given back: 0.373
